# TEST SYSTEM: hSTING-R232 (aa140-379) (Homo sapiens, UniProt Q86WV6, H232R)
# Sequence (Q86WV6 140-379 H232R): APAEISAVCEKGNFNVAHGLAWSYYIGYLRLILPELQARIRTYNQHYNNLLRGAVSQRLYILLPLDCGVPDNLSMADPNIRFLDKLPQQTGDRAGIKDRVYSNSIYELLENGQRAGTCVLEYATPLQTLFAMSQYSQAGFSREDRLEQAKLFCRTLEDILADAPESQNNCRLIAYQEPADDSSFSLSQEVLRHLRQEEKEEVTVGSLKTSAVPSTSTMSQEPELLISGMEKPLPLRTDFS
# MEASUREMENT PROTOCOL: STING differential scanning fluorimetry (DSF) assay, hSTING WT
# CONDITION SET: shift in melting temperature apo vs ligand-bound
PROPERTY: WT_DSF_hSWAT Tm Shift (° C.)

>>> value_observed("CN(C)c1c(Cl)ccc2c(=O)c3ccc(-c4ccn(C(=O)OC(C)(C)C)c4)cc3n(CC(=O)O)c12")
"D (“D” >7° C.)"
>>> value_observed("CN(C)c1c(Cl)ccc2c(=O)c3ccc(-c4ccccn4)cc3n(CC(=O)O)c12")
"D (“D” >7° C.)"
>>> value_observed("Cc1cc2c(cc1Br)c(=O)c1ccc(Cl)c(N(C)C)c1n2CC(=O)O")
"C (“C” = 2-7° C.)"
>>> value_observed("Cc1ccc2c(=O)c3ccc(Cl)c(N(C)C)c3n(CC(=O)NS(C)(=O)=O)c2c1")
"D (“D” >7° C.)"
>>> value_observed("Cc1noc(C)c1-c1ccc2c(=O)c3ccc(Cl)c(N(C)C)c3n(CC(=O)O)c2c1")
"C (“C” = 2-7° C.)"
>>> value_observed("Cc1cccn1-c1ccc2c(=O)c3ccc(Cl)c(N(C)C)c3n(CC(=O)O)c2c1")
"D (“D” >7° C.)"
>>> value_observed("CN(C)c1c(Cl)ccc2c(=O)c3ccc(C4=CCN(C(=O)OC(C)(C)C)C4)cc3n(CC(=O)O)c12")
"D (“D” >7° C.)"
>>> value_observed("CN(C)c1c(Cl)ccc2c(=O)c3ccc(C(C)(C)C)cc3n(CC(=O)NC#N)c12")
"D (“D” >7° C.)"
>>> value_observed("CN(C)c1c(Cl)ccc2c(=O)c3ccc(-n4cccc4)cc3n(CC(=O)O)c12")
"D (“D” >7° C.)"
>>> value_observed("CN(C)c1c(Cl)ccc2c(=O)c3ccc(-c4ccncc4)cc3n(CC(=O)O)c12")
"D (“D” >7° C.)"
>>> value_observed("CN(C)c1c(Cl)ccc2c(=O)c3ccc(C4=CCCCC4)cc3n(CC(=O)O)c12")
"D (“D” >7° C.)"
>>> value_observed("COc1ccc2c(=O)c3ccc(Cl)c(N(C)C)c3n(CC(=O)O)c2c1")
"D (“D” >7° C.)"
>>> value_observed("Cc1ccc2c(=O)c3ccc(C(C)(C)C)cc3n(CC(=O)O)c2c1N(C)C")
"D (“D” >7° C.)"
>>> value_observed("CN(C)c1c(Cl)ccc2c(=O)c3ccc(-c4cc[nH]c4)cc3n(CC(=O)O)c12")
"D (“D” >7° C.)"
>>> value_observed("Cc1ccc2c(=O)c3ccc(Cl)c(N(C)C)c3n(CC(=O)NC#N)c2c1")
"C (“C” = 2-7° C.)"
>>> value_observed("CN(C)c1c(Cl)ccc2c(=O)c3ccc(-c4ccco4)cc3n(CC(=O)O)c12")
"D (“D” >7° C.)"

---

# TEST SYSTEM: human STING protein (140-379), WT (Homo sapiens, UniProt Q86WV6, H232R)
# Sequence (Q86WV6 140-379 H232R): as above
# MEASUREMENT PROTOCOL: Radiometric filtration binding competition assay (FBA), hSTING-WT
# CONDITION SET: WT-hSWAT IC50 (μM), WT_FBA_HIS-SUMO-hSWAT; wild-type human STING; competition with [H3] 2′3′cGAMP
Listing: IC50 of selected molecules
PROPERTY: IC50

>>> value_observed("CN(C)c1c(Cl)ccc2c(=O)c3ccc(-c4ccccc4)cc3n(CC(=O)O)c12")
"< 20 µM"
>>> value_observed("CN(C)c1c(Cl)ccc2c(=O)c3ccc(-n4ccnc4)cc3n(CC(=O)O)c12")
"20 to 100 µM"
>>> value_observed("O=C(O)Cn1c2ccccc2c(=O)c2ccc(Cl)c(-c3cccs3)c21")
"20 to 100 µM"
>>> value_observed("C=Cc1cc2c(cc1Cl)c(=O)c1ccc(Cl)c(N(C)C)c1n2CC(=O)O")
"< 20 µM"
>>> value_observed("C=Cc1c(Cl)ccc2c(=O)c3ccc(C)cc3n(CC(=O)O)c12")
"20 to 100 µM"
>>> value_observed("CN(C)c1c(Cl)ccc2c(=O)c3ccc(C(C)(C)C)cc3n(CC(=O)NC#N)c12")
"< 20 µM"
>>> value_observed("COc1c(Cl)ccc2c(=O)c3ccc(C4=CCN(C)CC4)cc3n(CC(=O)O)c12")
"> 300 µM"
>>> value_observed("COc1c(Cl)ccc2c(=O)c3ccc(C4CCN(C)CC4)cc3n(CC(=O)O)c12")
"100 to 300 µM"
